Source of measurements: patent EP0230023B1

# Test system: fibroblasts
# EXPERIMENTAL PROTOCOL: Cell migration assay (Boyden chamber)
# Assay type: cell-based
# Set-up: scale not given here
# TEST CONTEXT: score, Boyden chamber, scale not defined; potassium salts
TEST READOUT: Chemokinesis
Form rule: numeric answer, no unit written next to it.

INSERT INTO results (compound, obs_value) VALUES
  ('O=S(=O)([O-])OC[C@H]1O[C@@](COS(=O)(=O)[O-])(O[C@H]2O[C@H](COS(=O)(=O)[O-])[C@@H](OS(=O)(=O)[O-])[C@H](OS(=O)(=O)[O-])[C@H]2OS(=O)(=O)[O-])[C@@H](OS(=O)(=O)[O-])[C@@H]1OS(=O)(=O)[O-].[K+].[K+].[K+].[K+].[K+].[K+].[K+].[K+] [Sucrose Octasulfate, potassium sucrose octasulfate]', 4),
  ('O=S(=O)([O-])OC[C@H]1O[C@@H](O[C@H]2[C@H](OS(=O)(=O)[O-])[C@@H](OS(=O)(=O)[O-])[C@H](OS(=O)(=O)[O-])O[C@@H]2COS(=O)(=O)[O-])[C@H](OS(=O)(=O)[O-])[C@@H](OS(=O)(=O)[O-])[C@H]1OS(=O)(=O)[O-].[K+].[K+].[K+].[K+].[K+].[K+].[K+].[K+] [Beta-Lactose Octasulfate, potassium β -lactose octasulfate]', 3.0),
  ('O=C[C@@H](OS(=O)(=O)[O-])[C@@H](OS(=O)(=O)[O-])[C@H](OS(=O)(=O)[O-])[C@@H](COS(=O)(=O)[O-])OS(=O)(=O)[O-].[K+].[K+].[K+].[K+].[K+] [Mannose Pentasulfate, potassium mannose pentasulfate]', 4.0),
  ('O=S(=O)([O-])OC[C@H]1O[C@H](O[C@H]2O[C@H](COS(=O)(=O)[O-])[C@@H](OS(=O)(=O)[O-])[C@H](OS(=O)(=O)[O-])[C@H]2OS(=O)(=O)[O-])[C@H](OS(=O)(=O)[O-])[C@@H](OS(=O)(=O)[O-])[C@@H]1OS(=O)(=O)[O-].[K+].[K+].[K+].[K+].[K+].[K+].[K+].[K+] [Trehalose Octasulfate, potassium trehalose octasulfate]', 2.0);

Please examine the following record next.
IN: Requested read-out Chemokinesis, target or system fibroblasts, entry O=C[C@H](O)[C@@H](O)[C@H](O)[C@H](O)COS(=O)(=O)[O-].[K+] [Glucose-6-Sulfate, potassium D-glucose-6-sulfate, reference compound]
OUT: 1

====

# System: rabbit corneas
# EXPERIMENTAL PROTOCOL: Rabbit cornea assay for angiogenesis
# Type: in vivo
# TEST CONTEXT: grade on scale 0-4+ in rabbit cornea; potassium salts
TEST READOUT: Angiogenesis
Form rule: numeric answer, no unit written next to it.

IN: Reported Angiogenesis for O=C[C@H](OS(=O)(=O)[O-])[C@@H](OS(=O)(=O)[O-])[C@H](OS(=O)(=O)[O-])[C@@H](COS(=O)(=O)[O-])OS(=O)(=O)[O-].[K+].[K+].[K+].[K+].[K+] [Glucose Pentasulfate, potassium glucose pentasulfate] : what is it?
OUT: 2.0

IN: Reported Angiogenesis for O=C[C@@H](OS(=O)(=O)[O-])[C@@H](OS(=O)(=O)[O-])[C@H](OS(=O)(=O)[O-])[C@@H](COS(=O)(=O)[O-])OS(=O)(=O)[O-].[K+].[K+].[K+].[K+].[K+] [Mannose Pentasulfate, potassium mannose pentasulfate] : what is it?
OUT: 3.0

IN: Reported Angiogenesis for O=S(=O)([O-])OC[C@H]1O[C@@](COS(=O)(=O)[O-])(O[C@H]2O[C@H](COS(=O)(=O)[O-])[C@@H](OS(=O)(=O)[O-])[C@H](OS(=O)(=O)[O-])[C@H]2OS(=O)(=O)[O-])[C@@H](OS(=O)(=O)[O-])[C@@H]1OS(=O)(=O)[O-].[K+].[K+].[K+].[K+].[K+].[K+].[K+].[K+] [Sucrose Octasulfate, potassium sucrose octasulfate] : what is it?
OUT: 4

IN: Reported Angiogenesis for O=C[C@H](O)[C@@H](O)[C@H](O)[C@H](O)COS(=O)(=O)[O-].[K+] [Glucose-6-Sulfate, potassium D-glucose-6-sulfate, reference compound] : what is it?
OUT: 1
